measurementName: melting point

In [3]: df
Out[3]:
                                    compound  valuemeasured
 0  COc1cc(COc2nn(C)cc2C=O)ccc1OCc1nc(-c2ccccc2)oc1C  123 to 124 °C
 1  CCc1nc(/C=C\c2cn(-c3ccccc3)nc2OCc2ccc(OCc3nc(-c4cccc(C(=O)OC)c4)oc3C)c(OC)c2)cs1 [Example 225 (Z form)]  125 to 126 °C
 2  COc1cc(COc2nn(-c3ccccc3)cc2-c2cnco2)ccc1OCc1nc(-c2ccco2)oc1C  153 to 154 °C
 3  COc1cc(COc2cc(CO)n(-c3ccccc3)n2)ccc1OCc1nc(-c2ccccc2)oc1C  146 to 147 °C
 4  COc1cc(COc2nn(-c3ccccc3)cc2/C=C/c2cscn2)ccc1OCc1nc(-c2ccco2)oc1C [Example 111 (E form)]  136 to 137 °C
 5  COc1cc(COc2nn(CCO)cc2C=O)ccc1OCc1nc(-c2ccco2)oc1C  149 to 150 °C
 6  Cc1oc(-c2ccco2)nc1COc1ccc(COc2nn(Cc3ccccc3)cc2C(=O)O)cc1Cl  191 to 192 °C
 7  COc1cc(COc2nn(-c3ccccc3)cc2C=O)ccc1OCc1nc(-c2ccccc2)sc1C  164 to 165 °C
 8  COc1cc(COc2cc(/C=C/c3ccccn3)n(-c3ccccc3)n2)ccc1OCc1nc(-c2ccco2)oc1C  122 to 123 °C
 9  CCOC(=O)Cc1ccc(-c2nc(COc3ccc(COc4nn(-c5ccccc5)cc4/C=C\c4cncn4CC)cc3OC)c(C)o2)cc1    85 to 86 °C
10  COc1cc(COc2nn(-c3ccccc3)cc2C=O)ccc1OCc1nc(-c2cccc(O)c2)oc1C  193 to 194 °C
11  CCOC(=O)c1cn(Cc2ccccc2)nc1OCc1ccc(OCc2nc(-c3ccco3)oc2C)c(OCC)c1  121 to 122 °C
12  CCOC(=O)C1CCN(c2nc(COc3ccc(COc4nn(-c5ccccc5)cc4C=O)cc3OC)c(C)s2)CC1  126 to 127 °C
13  COc1cc(OCc2nc(-c3ccco3)oc2C)ccc1COc1nn(Cc2ccccc2)cc1C=O  147 to 148 °C
14  CCOP(=O)(/C=C/c1cn(-c2ccccc2)nc1OCc1ccc(OCc2nc(-c3ccc(CC(=O)[O-])cc3)oc2C)c(OC)c1)OCC.[Na+]  109 to 110 °C
15  Cc1oc(-c2ccccc2)nc1COc1cccc(COc2nn(Cc3ccccc3)cc2C=O)c1  131 to 132 °C
16  COc1cc(COc2nn(C)cc2C(N)=O)ccc1OCc1nc(-c2ccccc2)oc1C  168 to 169 °C
17  COc1cc(COc2nn(C)cc2/C=C\c2cscn2)ccc1OCc1nc(-c2ccco2)oc1C [Example 167 (Z form)]    97 to 98 °C

----------
Measured melting point accompanies every entry in the list below.
measurementName: melting point

In [3]: df
Out[3]:
                                    molecule  measurementname  valuemeasured
 0  CCOC(=O)c1cn(Cc2ccccc2)nc1OCc1ccc(OCc2nc(-c3ccccc3)oc2C)cc1 [Example 20]    melting point   99 to 100 °C
 1  Cc1oc(-c2ccco2)nc1COc1ccc(COc2nn(Cc3ccccc3)cc2C(=O)O)cc1OCc1ccccc1 [Example 51]    melting point  184 to 185 °C
 2  CCOP(=O)(CCc1cc(OCc2ccc(OCc3nc(-c4ccco4)oc3C)c(OC)c2)nn1-c1ccccc1)OCC    melting point    76 to 77 °C
 3  COc1cc(COc2nn(-c3ccccc3)cc2C=C(C#N)C#N)ccc1OCc1nc(-c2ccco2)oc1C [Example 96]    melting point  190 to 191 °C
 4  CCc1nc(/C=C/c2cn(-c3ccccc3)nc2OCc2ccc(OCc3nc(-c4cccc(C(=O)O)c4)oc3C)c(OC)c2)co1 [Example 307]    melting point  169 to 171 °C
 5  CCc1cc(COc2nn(Cc3ccccc3)cc2C(=O)O)ccc1OCc1nc(-c2ccco2)oc1C [Example 69]    melting point  173 to 174 °C
 6  COc1cc(COc2nn(-c3ccccc3)cc2CC2SC(=O)N(C)C2=O)ccc1OCc1nc(-c2ccco2)oc1C (stereo not shown) [Example 106]    melting point  111 to 112 °C
 7  CCc1nc(/C=C/c2cn(-c3ccccc3)nc2OCc2ccc(OCc3nc(-c4ccco4)oc3C)c(OC)c2)cs1 [Example 152 (E form)]    melting point  108 to 109 °C
 8  CCOC(=O)c1cn(C)nc1OCc1ccc(OCc2nc(-c3ccco3)oc2C)c(OC)c1 [Example 171]    melting point  117 to 118 °C
 9  CCOP(=O)(/C=C/c1cn(-c2ccccc2)nc1OCc1ccc(OCc2nc(-c3ccccc3)oc2C)cc1)OCC    melting point  109 to 110 °C
10  COc1cc(COc2cc(/C=C/C(=O)O)n(-c3ccccc3)n2)ccc1OCc1nc(-c2ccco2)oc1C [Example 136]    melting point  191 to 192 °C
11  CCOP(=O)(/C=C/c1cn(CCO)nc1OCc1ccc(OCc2nc(-c3ccco3)oc2C)c(OC)c1)OCC    melting point    95 to 96 °C
12  COc1cc(COc2nn(-c3ccccc3)cc2/C=C\S(C)(=O)=O)ccc1OCc1nc(-c2ccco2)oc1C [Example 131]    melting point  158 to 159 °C
13  Cc1oc(-c2ccccc2)nc1COc1ccc(COc2nn(-c3ccccc3)cc2CO)cc1 [Example 81]    melting point  118 to 119 °C
14  COc1cc(COc2nn(-c3ccccc3)cc2/C=C/C(=O)N2CCOCC2)ccc1OCc1nc(-c2ccco2)oc1C [Example 98]    melting point  180 to 181 °C
15  COc1cc(COc2nn(-c3ccccc3)cc2/C=C/S(C)(=O)=O)ccc1OCc1nc(-c2ccco2)oc1C [Example 130]    melting point  152 to 153 °C
